Each entry below lists one item and its recorded half-life value.
# experiment-summary: Stability (half life) in buffer solutions at pH 3, 5 and 7 at 50, 75 or 100 °C
# Type: physicochemical
# details: buffer, pH 7, buffer solution, 100 °C, pH 7
Where a SMILES comes first, the peptide text is derived from it.

compound	half-life
COC(=O)[C@H](Cc1ccccc1)NC(=O)[C@@H](N)CC(=O)O [Aspartame, L-Aspartyl-L-phenylalanine methyl ester, reference compound] (H-Asp-Phe-OMe)	< 60 min
CC(C)(NC(=O)[C@@H](N)CC(=O)O)C(=O)OC1C2(C)CCC(C2)C1(C)C (single isomer, unassigned)	4020 min
C[C@@H](NC(=O)[C@@H](N)CC(=O)O)C(=O)OC1C2(C)CCC(C2)C1(C)C (single isomer, unassigned) [Example 10, α-L-Aspartyl-D-alanine[β(+)Fenchyl]ester]	600 min

This collection of values is drawn from patent US4822635A.
